In this section we review reported PBM binding z-score values for a set of sequences.
# Tested on: RARg homodimer (NR concentration 270 nM)
# EXPERIMENT_NOTES: PBM binding z-score (relative to random genomic background probes); higher = stronger binding; sequences stand for … in GC…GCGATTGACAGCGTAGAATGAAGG
Answer with the value's number alone.

{"BIOPOLYMER_SEQUENCE": "CCTAGCAGGCCAGGGTCACTCAGGCATTTCGCTT", "ENDPOINT": "PBM binding z-score", "OBSERVED_MEASUREMENT": 2.03}

Value lookup for PBM binding z-score; key = `CCTAGCAGGCCAGGGTCACACAAGCATTTCGCTT`
2.62

Value lookup for PBM binding z-score; key = `TCATATAGGTAAACAGGTGAACGTCCGTAAGTTA`
0.712

Value lookup for PBM binding z-score; key = `ACTATTAGTTGAGACGAGGGAAACCGATAGGTTG`
0.307

Value lookup for PBM binding z-score; key = `ATCTCTAGGTAAAGTTAGTTCAGTGAATGCAAAT`
0.531

----------
# Tested on: PPARa:RXRa (NR concentration 270 nM, RXRa partner concentration 90 nM)
# EXPERIMENT_NOTES: PBM binding z-score (relative to random genomic background probes); higher = stronger binding; sequences stand for … in GC…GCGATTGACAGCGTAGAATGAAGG
Each entry falls into one class according to its PBM binding z-score; the ranges are A = under 1, B = from 1 up to 2, C = 2 and over

Take a look at these entries with their results.
{"BIOPOLYMER_SEQUENCE": "CCTAGCAGGCCAATCTGGATCACTCAAGGCTTGA", "CLASS_NAME": "A"}
{"BIOPOLYMER_SEQUENCE": "GGAAAGAGGGCATTCGAGTTGATAGCATGGCGAT", "CLASS_NAME": "B"}
{"BIOPOLYMER_SEQUENCE": "TTACCAAGGTGAGCTGAGGTCGTTTATCCAACTC", "CLASS_NAME": "B"}

Tag the class for `GCTGCTAGGTCAGCTGATGGTCAGCTAAAGCTCG`
B

Tag the class for `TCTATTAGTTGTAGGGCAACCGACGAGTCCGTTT`
B

----------
# Test system: VDR homodimer (NR concentration 270 nM)
# EXPERIMENT_NOTES: PBM binding z-score (relative to random genomic background probes); higher = stronger binding; sequences stand for … in GC…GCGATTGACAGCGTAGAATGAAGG
ENDPOINT: PBM binding z-score
Answer with the value's number alone.

Examples from the recorded data:
{"BIOPOLYMER_SEQUENCE": "CCCAGCAGGCCAATCTGGGTCACTCAAGGCTTGA", "PBM binding z-score": -0.172}
{"BIOPOLYMER_SEQUENCE": "ATCTCTAGGTAAAAGTTCAGCGAATCCCGAGGAT", "PBM binding z-score": 1.07}
{"BIOPOLYMER_SEQUENCE": "GCTATTAGTTGAAAGGGCCACCGAATGATTCTCG", "PBM binding z-score": 0.169}
{"BIOPOLYMER_SEQUENCE": "ACTATTAGTTGAGACGAGGGCAACCCATAGGTTG", "PBM binding z-score": 0.783}
{"BIOPOLYMER_SEQUENCE": "AGATTGAGGTTATACGTAGATCAGGGAAGAAAGT", "PBM binding z-score": 0.908}
{"BIOPOLYMER_SEQUENCE": "GAATATAGGTAATACAAGGTGAAAGTCCGATTGT", "PBM binding z-score": 0.435}
{"BIOPOLYMER_SEQUENCE": "CCTCCAAGGTCAGCAGGTCAGTGAAAGCGACGTG", "PBM binding z-score": 1.55}
{"BIOPOLYMER_SEQUENCE": "TAACCAAGGTGAAGGTCGTTGATCCCTCTGTAGA", "PBM binding z-score": 0.809}

Value lookup for PBM binding z-score; key = `TTACCAAGGTGAGCTGTGGTCGTTGATCCAACTC`
-0.783

Value lookup for PBM binding z-score; key = `GCTATTAGCTGAAAGGGCAACCGAATGATTCTCG`
-0.0197

Value lookup for PBM binding z-score; key = `CGTCCAAAGTCAGCAGGTCAGTGAAAGCGACGTG`
0.0938

Value lookup for PBM binding z-score; key = `ATCTGTAGGTAAAGTTCAGTGAAAGATCGATAGA`
1.83

Value lookup for PBM binding z-score; key = `CCTTACGTGTCACTGACAGGTTATAGCATTTGGA`
0.842

----------
# Tested on: PPARg:RXRa (NR concentration 180 nM, RXRa partner concentration 90 nM)
# EXPERIMENT_NOTES: PBM binding z-score (relative to random genomic background probes); higher = stronger binding; sequences stand for … in GC…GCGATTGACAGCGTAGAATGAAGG
In this section we review reported PBM binding z-score values for a set of sequences.

Examples from the recorded data:
{"BIOPOLYMER_SEQUENCE": "TCTTGTAGATCAACAGGAGGTTAAGAAGGATCGA", "PBM binding z-score": 0.000249}
{"BIOPOLYMER_SEQUENCE": "CCTAGCTGGTCAGGAGGTCACACACCGGATATGA", "PBM binding z-score": 2.84}
{"BIOPOLYMER_SEQUENCE": "CCGACTGGGGCAAAGGTTTCCATACTCAGTACGA", "PBM binding z-score": 8.18}
{"BIOPOLYMER_SEQUENCE": "CGTCCAAGGTCAAGGTCAGTGGAAGAGACTCGAA", "PBM binding z-score": 6.29}

Value lookup for PBM binding z-score; key = `CAAACTAGGTCAATGGTCAAAGTCGAGCCAACCA`
9.78

----------
# Tested on: RARb homodimer (NR concentration 270 nM)
# EXPERIMENT_NOTES: PBM binding z-score (relative to random genomic background probes); higher = stronger binding; sequences stand for … in GC…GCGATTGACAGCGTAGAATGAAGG
In this section we review reported PBM binding z-score values for a set of sequences.
Answer with the value's number alone.

Examples from the recorded data:
{"BIOPOLYMER_SEQUENCE": "AGAATGAGGTTATACGTAGAACAGGGAAGAAAGT", "PBM binding z-score": 0.739}
{"BIOPOLYMER_SEQUENCE": "ATCTCTAGGTAAAAGTCCAGTGAATCCCGAGGAT", "PBM binding z-score": -0.174}
{"BIOPOLYMER_SEQUENCE": "TCTCGGAGGACAAGAAAGGTCAGAGCTCGACATC", "PBM binding z-score": 4.61}
{"BIOPOLYMER_SEQUENCE": "CCTGCTGGGCCAAAGGTCATTGATTCCAATGCTC", "PBM binding z-score": 4.53}
{"BIOPOLYMER_SEQUENCE": "TCTAGCAGGCCAGAGGGTCACTCGAGAGGTACGG", "PBM binding z-score": 2.65}
{"BIOPOLYMER_SEQUENCE": "CCTTACGGGTCACTGACAAGTTATAGCATTTGGA", "PBM binding z-score": 2.62}

Please provide the recorded PBM binding z-score for `CCGACTGGGGCAGAAAGGTTACCATTCCATCCGG` , tested on RARb homodimer (NR concentration 270 nM).
1.92

Please provide the recorded PBM binding z-score for `ATCGAAAGGTCGAGGTGAGTCTAGAGAAAGGGAA` , tested on RARb homodimer (NR concentration 270 nM).
2.89

----------
# System: PPARg:RXRa 30nM:10nM, anti-RXR (NR concentration 30 nM, RXRa partner concentration 10 nM)
# EXPERIMENT_NOTES: PBM binding z-score (relative to random genomic background probes); higher = stronger binding; sequences stand for … in GC…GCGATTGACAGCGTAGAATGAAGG
Each entry falls into one class according to its PBM binding z-score; the ranges are LOW: < 0.5; MEDIUM: ≥ 0.5 and < 2; HIGH: ≥ 2

Take a look at these entries with their results.
{"BIOPOLYMER_SEQUENCE": "GCTCGGAGGACAAGGGCAGAGCTTTGTCCGTAGA", "CLASS_NAME": "LOW"}
{"BIOPOLYMER_SEQUENCE": "ATATGTAGGTTAGCTGGGGTCATACAGACTAGGC", "CLASS_NAME": "HIGH"}
{"BIOPOLYMER_SEQUENCE": "TCTCGGAGGACACGAAGGTCAGATCTTTCCAGAG", "CLASS_NAME": "HIGH"}
{"BIOPOLYMER_SEQUENCE": "AGAATGAGGTTACCAAAGATGAGGGAAACGCTTG", "CLASS_NAME": "MEDIUM"}

Tag the class for `TCATATAGGTAAAGGTGATAGTCGAACGATATGA`
HIGH

Tag the class for `TCTGCTAGGTCAACGATGGTCAGCAAATCTGCTA`
HIGH

Tag the class for `ACTGGCAGGCCAAGGGTCACTCAAGATTAGTCCG`
HIGH

Tag the class for `CCGAGCAGGTTATGGGGCATTCAGGCAACGGTGA`
LOW

Tag the class for `CCTTACGGGTCACTGACAGGTTATTGCATTTGGA`
MEDIUM

Origin of values: the supplement of paper PMC6555819
